Tested on: SEM cells
test.details: cell viability relative to DMSO control; higher = less cytotoxic
conditions.used: RPMI 5 mM glucose + 10% FBS; 48 h; 5.12 µM
Give cell viability for every item shown.
Give bare numbers, in %.

Below are worked cases with known answers.
| smiles.record | cell viability [%] |
| --- | --- |
| CC(C)C1=C(O)C=C(O)C(=C1)C/2=N/NC(=O)N2C3=CC4=C(C=C3)[N](C)C=C4 | 23.6 |
| Cc1cc(C(C)(C)C)c(O)c(C)c1CC1=NCCN1 | 53.1 |
| O=C(NC[C@H](O)CO)c1ccncc1Nc1ccc(I)cc1F | 68.3 |
| COC(=O)[C@@H]1[C@H]2C[C@H]3c4[nH]c5ccccc5c4CCN3C[C@@H]2CC[C@@H]1O | 120 |

// switching to the query compound
State its cell viability: C=C(C)[C@H]1Cc2c(ccc3c2O[C@@H]2COc4cc(OC)c(OC)cc4[C@@H]2C3=O)O1
40.3

###

Test system: P12-Ichikawa
test.details: AUC of viability dose-response curve (% viability x log10 dose units); higher = less sensitive
conditions.used: RPMI 5 mM glucose + 10% FBS; 48 h
value.kind: AUC of viability dose-response curve
Numbers only.

| smiles.record | value.kind | observed.result |
| --- | --- | --- |
| CN(C)CCc1ccc(O)cc1 | AUC of viability dose-response curve | 446 |
| O=c1[nH]c2ccccc2n1C1CCN(Cc2ccc(-c3nc4cc5nc[nH]c5cc4nc3-c3ccccc3)cc2)CC1 | AUC of viability dose-response curve | 460 |
| Cc1c(NC(=O)OC[C@@H]2COCCN2)cn2ncnc(Nc3ccc4c(cnn4Cc4cccc(F)c4)c3)c12 | AUC of viability dose-response curve | 401 |
| CCCCCC[C@H]1C(=O)O[C@H](C)[C@H](NC(=O)c2cccc(NC=O)c2O)C(=O)O[C@@H](C)[C@@H]1OC(=O)CC(C)C | AUC of viability dose-response curve | 403 |
| O=C(O[C@H]1C[C@H]2CC[C@@H](C1)[N+]21CCCC1)C(O)(c1ccccc1)c1ccccc1.[Cl-] | AUC of viability dose-response curve | 464 |

Below is a list of compounds. For each, state its recorded AUC of viability dose-response curve.
1. C\C1=C(\C=C(C#N)/C(=O)N1)C2=C[N]3C=CN=C3C=C2
2. CN(NC(=O)CC(=O)NN(C)C(=S)c1ccccc1)C(=S)c1ccccc1
3. NC/1=N/C2=C([NH]C=N2)C(=S)N1

1. 394
2. 204
3. 433

###

Tested on: NOMO1
test.details: cell viability relative to DMSO control; higher = less cytotoxic
conditions.used: HPLM + 10% dialyzed FBS; 48 h; 0.569 µM
value.kind: cell viability (%)
Give bare numbers, in %.

Before answering, review these 4 worked examples.
| molecule | observed.result |
| --- | --- |
| C[C@]1(c2nc3c(C(N)=O)cccc3[nH]2)CCCN1 | 84.2 |
| Cn1c(CNc2ccc(C(=N)N)cc2)nc2cc(C(=O)N(CCC(=O)O)c3ccccn3)ccc21 | 116 |
| CCOC(=O)C/1=C(O)/C(=O)N(CC2=CC=CC=C2)C1 | 103 |
| Cc1ccc([S+](=O)([O-])N[C@@H](Cc2ccccc2)C(=O)CCl)cc1 | 99.1 |

Quick request: cell viability for each listed item, please.
1. Cc1cnc(-c2cc(N3CCN(C(=O)CC[S+](C)(=O)[O-])CC3)ncc2Cl)c(C)c1
2. FC(F)c1nc2ccccc2n1-c1nc(N2CCOCC2)nc(N2CCOCC2)n1
3. OC[C@H]1OCC(O1)[N@@]2C=CC(N)=NC2=O (stereo not given in full)
4. COc1ccc(C(C)=O)c(O)c1
5. C/C=C1\C2C=C(C)CC1(N)c1ccc(=O)[nH]c1C2 (stereo not given)
6. O=c1[nH]c2ccccc2n1C1CCN(Cc2ccc(-c3nc4cc5nc[nH]c5cc4nc3-c3ccccc3)cc2)CC1
7. N=C(NCCCCCCNC(=N)NC(=N)Nc1ccc(Cl)cc1)NC(=N)Nc1ccc(Cl)cc1
8. COC1=CC=C(C=C1)C/2=C/OC3=C(C(=CC(=C3)O)O)C2=O

1. 127
2. 43.9
3. 131
4. 98
5. 117
6. 108
7. 105
8. 133
